# Tested on: Klebsiella pneumoniae (KPN) isolates
# Method notes: MIC of compounds alone and combined with antibacterials, broth microdilution (CLSI)
# Type: cell-based
# Applied conditions: KPN UFR219; AF1 @ 4 μg/mL
Readout: MIC ATB in combination

Reference set, count: 4
| Smiles string | Result |
| --- | --- |
| CO/N=C(\C(=O)N[C@@H]1C(=O)N2C(C(=O)O)=C(COC(N)=O)CS[C@H]12)c1ccco1 | 8 µg/mL |
| COCC1=C(C(=O)O)N2C(=O)[C@@H](NC(=O)/C(=N\OC)c3csc(N)n3)[C@H]2SC1 | <=0.25 μg/mL |
| CC(C)(O/N=C(\C(=O)N[C@@H]1C(=O)N2C(C(=O)[O-])=C(C[n+]3ccccc3)CS[C@H]12)c1csc(N)n1)C(=O)O | 0.5 µg/mL |
| C=CC1=C(C(=O)O)N2C(=O)[C@@H](NC(=O)/C(=N\O)c3csc(N)n3)[C@H]2SC1 | <=0.25 μg/mL |

// next item, MIC ATB in combination requested
So the reported MIC ATB in combination for `C=CC1=C(C(=O)O)N2C(=O)[C@@H](NC(=O)/C(=N\OCC(=O)O)c3csc(N)n3)[C@H]2SC1` , on Klebsiella pneumoniae (KPN) isolates, turned out to be <=0.25 μg/mL

* * *

Listed next: entries and their corresponding MIC ATB in combination.
# Test system: Enterobacter cloacae (ECL) isolates
# Method notes: MIC of compounds alone and combined with antibacterials, broth microdilution (CLSI)
# Assay type: cell-based
# Applied conditions: strain ECL UFR196; antibacterial combined with AF1 @ 4 μg/mL
Enter your answer as a number in µg/mL; do not include the unit.

Previously resolved entries follow.
| Smiles string | Tgt | MIC ATB in combination (µg/mL) |
| --- | --- | --- |
| C=CC1=C(C(=O)O)N2C(=O)[C@@H](NC(=O)/C(=N\O)c3csc(N)n3)[C@H]2SC1 | Enterobacter cloacae (ECL) isolates | 16 |
| CC(C)(O/N=C(\C(=O)N[C@@H]1C(=O)N2C(C(=O)[O-])=C(C[n+]3ccccc3)CS[C@H]12)c1csc(N)n1)C(=O)O | Enterobacter cloacae (ECL) isolates | 2 |
| COCC1=C(C(=O)O)N2C(=O)[C@@H](NC(=O)/C(=N\OC)c3csc(N)n3)[C@H]2SC1 | Enterobacter cloacae (ECL) isolates | 2 |

Lab note: measured MIC ATB in combination of `CO/N=C(\C(=O)N[C@@H]1C(=O)N2C(C(=O)O)=C(COC(N)=O)CS[C@H]12)c1ccco1` was 64

MIC ATB in combination reported for this molecule `C=CC1=C(C(=O)O)N2C(=O)[C@@H](NC(=O)/C(=N\OCC(=O)O)c3csc(N)n3)[C@H]2SC1` : 16

* * *

# System: Klebsiella pneumoniae (KPN) isolates
# Method notes: MIC of compounds alone and combined with antibacterials, broth microdilution (CLSI)
# Assay type: cell-based
# Applied conditions: KPN UFR216; AF1 @ 4 μg/mL
Readout: MIC ATB in combination

// known answers, use as guide
| Smiles string | Tgt | MIC ATB in combination |
| --- | --- | --- |
| CO/N=C(\C(=O)N[C@@H]1C(=O)N2C(C(=O)O)=C(COC(N)=O)CS[C@H]12)c1ccco1 | Klebsiella pneumoniae (KPN) isolates | 4 µg/mL |
| CC1(C)S[C@@H]2[C@H](NC(=O)[C@H](N)c3ccc(O)cc3)C(=O)N2[C@H]1C(=O)O | Klebsiella pneumoniae (KPN) isolates | 32 µg/mL |
| C=CC1=C(C(=O)O)N2C(=O)[C@@H](NC(=O)/C(=N\O)c3csc(N)n3)[C@H]2SC1 | Klebsiella pneumoniae (KPN) isolates | <=0.25 μg/mL |
| CC(C)(O/N=C(\C(=O)N[C@@H]1C(=O)N2C(C(=O)[O-])=C(C[n+]3ccccc3)CS[C@H]12)c1csc(N)n1)C(=O)O | Klebsiella pneumoniae (KPN) isolates | <=0.25 μg/mL |
| C=CC1=C(C(=O)O)N2C(=O)[C@@H](NC(=O)/C(=N\OCC(=O)O)c3csc(N)n3)[C@H]2SC1 | Klebsiella pneumoniae (KPN) isolates | <=0.25 μg/mL |

MIC ATB in combination reported for this compound `COCC1=C(C(=O)O)N2C(=O)[C@@H](NC(=O)/C(=N\OC)c3csc(N)n3)[C@H]2SC1` : <=0.25 μg/mL

* * *

# IC50 values compiled below
# Tgt: CMY-37 (Citrobacter freundii)
# Sequence (A0A9R8 21-381): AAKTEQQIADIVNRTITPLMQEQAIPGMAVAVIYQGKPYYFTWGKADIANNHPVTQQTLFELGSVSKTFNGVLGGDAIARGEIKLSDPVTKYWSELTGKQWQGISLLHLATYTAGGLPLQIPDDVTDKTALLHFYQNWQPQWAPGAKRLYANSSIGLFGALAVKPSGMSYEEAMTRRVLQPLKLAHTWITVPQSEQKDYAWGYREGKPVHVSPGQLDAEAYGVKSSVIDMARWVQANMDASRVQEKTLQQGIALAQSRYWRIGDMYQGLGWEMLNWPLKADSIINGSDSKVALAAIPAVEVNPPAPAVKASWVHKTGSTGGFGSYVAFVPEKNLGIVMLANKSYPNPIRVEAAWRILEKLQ
# Method notes: β-lactamase inhibitory activity, IC50 (nitrocefin hydrolysis)
Return type: number; implicit unit nM.

| Compound | Unit of measure | IC50 |
| --- | --- | --- |
| N#C[C@@H]1CC[C@@H]2CN1C(=O)N2OC(F)(F)C(=O)[O-].[Na+] [AF2] | nM | 70 |

Now consider the entry below.
Lab note: measured IC50 of NC(=O)[C@@H]1CC[C@@H]2CN1C(=O)N2OC(F)(F)C(=O)[O-].[Na+] [AF1] was 740

* * *

// values below are reported MIC ATB in combination
# Test system: Klebsiella pneumoniae (KPN) isolates
# Method notes: MIC of compounds alone and combined with antibacterials, broth microdilution (CLSI)
# Type: cell-based
# Applied conditions: KPN UFR28; AF1 @ 4 μg/mL
Give just the numeric value; µg/mL need not be written.

| Compound | Unit of measure | Number |
| --- | --- | --- |
| CO/N=C(\C(=O)N[C@@H]1C(=O)N2C(C(=O)O)=C(COC(N)=O)CS[C@H]12)c1ccco1 [FUR, Cefuroxime] | µg/mL | 4 |

Here is the next item to consider.
Test item C=CC1=C(C(=O)O)N2C(=O)[C@@H](NC(=O)/C(=N\O)c3csc(N)n3)[C@H]2SC1 [CDR, Cefdinir] ; Klebsiella pneumoniae (KPN) isolates; reported MIC ATB in combination was 1

* * *

# System: Serratia marcescens (SMA) isolates
# Method notes: MIC of compounds alone and combined with antibacterials, broth microdilution (CLSI)
# Type: cell-based
# Applied conditions: SMA UFR30; AF1 @ 4 μg/mL
Readout: MIC ATB in combination

| Smiles string | MIC ATB in combination |
| --- | --- |
| CC1(C)S[C@@H]2[C@H](NC(=O)[C@H](N)c3ccc(O)cc3)C(=O)N2[C@H]1C(=O)O | 256 µg/mL |
| COCC1=C(C(=O)O)N2C(=O)[C@@H](NC(=O)/C(=N\OC)c3csc(N)n3)[C@H]2SC1 | 0.5 µg/mL |
| C=CC1=C(C(=O)O)N2C(=O)[C@@H](NC(=O)/C(=N\O)c3csc(N)n3)[C@H]2SC1 | 1 µg/mL |
| CO/N=C(\C(=O)N[C@@H]1C(=O)N2C(C(=O)O)=C(COC(N)=O)CS[C@H]12)c1ccco1 | 64 µg/mL |
| C=CC1=C(C(=O)O)N2C(=O)[C@@H](NC(=O)/C(=N\OCC(=O)O)c3csc(N)n3)[C@H]2SC1 | <=0.25 μg/mL |

compound `CC(C)(O/N=C(\C(=O)N[C@@H]1C(=O)N2C(C(=O)[O-])=C(C[n+]3ccccc3)CS[C@H]12)c1csc(N)n1)C(=O)O` , MIC ATB in combination observed: <=0.25 μg/mL

* * *

# Tested on: Escherichia coli (ECO) isolates
# Method notes: MIC of compounds alone and combined with antibacterials, broth microdilution (CLSI)
# Format: cell-based
# Applied conditions: ECO UFR15; AF1 @ 4 μg/mL
Readout: MIC ATB in combination

# example entries with known answers
| Smiles string | Readout | Result |
| --- | --- | --- |
| CC(C)(O/N=C(\C(=O)N[C@@H]1C(=O)N2C(C(=O)[O-])=C(C[n+]3ccccc3)CS[C@H]12)c1csc(N)n1)C(=O)O | MIC ATB in combination | <=0.25 μg/mL |
| CC1(C)S[C@@H]2[C@H](NC(=O)[C@H](N)c3ccc(O)cc3)C(=O)N2[C@H]1C(=O)O | MIC ATB in combination | 16 µg/mL |
| CO/N=C(\C(=O)N[C@@H]1C(=O)N2C(C(=O)O)=C(COC(N)=O)CS[C@H]12)c1ccco1 | MIC ATB in combination | 2 µg/mL |
| C=CC1=C(C(=O)O)N2C(=O)[C@@H](NC(=O)/C(=N\O)c3csc(N)n3)[C@H]2SC1 | MIC ATB in combination | <=0.25 μg/mL |
| C=CC1=C(C(=O)O)N2C(=O)[C@@H](NC(=O)/C(=N\OCC(=O)O)c3csc(N)n3)[C@H]2SC1 | MIC ATB in combination | <=0.25 μg/mL |

MIC ATB in combination in this record for `COCC1=C(C(=O)O)N2C(=O)[C@@H](NC(=O)/C(=N\OC)c3csc(N)n3)[C@H]2SC1` : <=0.25 μg/mL
